target: human ether-à-go-go-related gene (hERG) potassium channel (human); test: primary screen, population patch clamp on CHO cells stably expressing hERG; higher = less effect of the substance;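 further: peak tail current of the secondary pulse compared with the same well before compound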
Sequence (Q12809 whole entry, looked up): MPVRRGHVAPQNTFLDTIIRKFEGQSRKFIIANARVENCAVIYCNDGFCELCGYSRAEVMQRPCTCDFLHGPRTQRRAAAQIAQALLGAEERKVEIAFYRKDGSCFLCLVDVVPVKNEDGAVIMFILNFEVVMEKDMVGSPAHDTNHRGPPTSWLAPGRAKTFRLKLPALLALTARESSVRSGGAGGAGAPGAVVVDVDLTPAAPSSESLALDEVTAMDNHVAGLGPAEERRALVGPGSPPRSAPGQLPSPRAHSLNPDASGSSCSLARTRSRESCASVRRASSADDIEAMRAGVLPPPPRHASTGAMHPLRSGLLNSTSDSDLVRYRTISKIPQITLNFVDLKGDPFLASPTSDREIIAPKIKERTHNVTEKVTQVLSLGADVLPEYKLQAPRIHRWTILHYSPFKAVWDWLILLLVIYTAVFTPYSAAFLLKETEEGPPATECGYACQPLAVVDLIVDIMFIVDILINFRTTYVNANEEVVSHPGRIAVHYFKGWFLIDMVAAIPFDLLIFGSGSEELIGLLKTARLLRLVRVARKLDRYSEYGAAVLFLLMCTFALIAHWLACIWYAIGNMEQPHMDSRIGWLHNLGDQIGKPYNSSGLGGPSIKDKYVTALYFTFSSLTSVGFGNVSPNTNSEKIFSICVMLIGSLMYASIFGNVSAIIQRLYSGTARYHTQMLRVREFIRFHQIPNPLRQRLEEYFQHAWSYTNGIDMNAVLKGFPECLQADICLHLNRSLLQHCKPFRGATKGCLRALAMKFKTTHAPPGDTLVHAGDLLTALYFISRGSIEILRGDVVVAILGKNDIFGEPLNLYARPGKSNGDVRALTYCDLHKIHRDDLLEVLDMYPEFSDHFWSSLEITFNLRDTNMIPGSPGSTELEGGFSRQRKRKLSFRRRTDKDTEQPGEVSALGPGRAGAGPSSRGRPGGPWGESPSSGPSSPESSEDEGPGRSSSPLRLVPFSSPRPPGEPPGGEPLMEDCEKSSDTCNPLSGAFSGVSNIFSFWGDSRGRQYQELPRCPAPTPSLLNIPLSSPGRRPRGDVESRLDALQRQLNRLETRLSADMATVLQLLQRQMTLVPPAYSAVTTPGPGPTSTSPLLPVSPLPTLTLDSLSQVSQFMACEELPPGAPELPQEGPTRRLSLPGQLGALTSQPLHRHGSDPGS
Among all 310,000 compounds or so, about 14,000 (4.5%) showed an effect of 50% or more. Effects have a minus sign here. The full list was thinned out, with strong results kept by preference.
Reported hERG current change (%, negative = inhibition) at 10uM values for a set of molecules
Numeric answer only, unit % assumed.

MOLECULE	READING
O=C(/C=C/c1ccc(F)cc1)NC(=S)N1C[C@H]2C[C@H](C1)c1cccc(=O)n1C2	-22.9
O=C(NCCCc1ccccc1)c1ccc(CS(=O)Cc2ccc(Cl)cc2)o1 (stereo not shown)	-74.3

Lookup result for Cc1cccc(OCCc2nnc(N)s2)c1C ; measured hERG current change (%, negative = inhibition) at 10uM: 15.2

Measured hERG current change (%, negative = inhibition) at 10uM of O=C(/C=C/c1ccccc1)NC(=S)N1C[C@H]2C[C@H](C1)c1cccc(=O)n1C2 : -15

Entry under test: COC(=O)c1ccc(C(=O)OC)c(NC(=O)CN(C)Cc2ccc(Cl)c(Cl)c2)c1 . Its hERG current change (%, negative = inhibition) at 10uM was 5.46

Attribution: paper PMC4336329
